Measured values drawn from PubChem BioAssay (NCI) for this set.

System: MDA-MB-435
assay-notes: NCI tumour cell line growth inhibition, 48 h
property: TGI (µM)
Give the value in µM but do not write µM after it.

Query block: Indicate its recorded TGI; the molecule in question is CC1OC(OC2CC(O)(C(=O)CO)Cc3c(O)c4c(c(O)c32)C(=O)c2ccccc2C4=O)CC(N)C1O (stereo unspecified)
Result block: 1.49

Query block: Indicate its recorded TGI; the molecule in question is "CC[C@]12CCCN3CC[C@]4(C(=C(C(=O)OC)C1)Nc1ccccc14)[C@@H]32"
Result block: 41

Query block: Indicate its recorded TGI; the molecule in question is CC1Cc2cc(O)ccc2C2[C@@H]1C1CC[C@H](O)[C@@]1(C)C[C@@H]2O[N+](=O)[O-] (stereo partly specified)
Result block: 16.9

Query block: Indicate its recorded TGI; the molecule in question is CSc1nc2c(c(=O)[nH]1)C(c1ccc(Cl)cc1)C1=C(N2)/C(=C/c2ccc(Cl)cc2)CNC1 (stereo unspecified)
Result block: 3.69

Query block: Indicate its recorded TGI; the molecule in question is "Nc1c(C(=O)Nc2ccccc2)sc2nc3c(cc12)CCCC3"
Result block: 0.415

Query block: Indicate its recorded TGI; the molecule in question is "C[C@@]1(N2C(=O)OC[C@@H]2c2ccccc2)C(=O)N([C@H](CC(=O)N2CCC(N3CCCCC3)CC2)C(=O)NCc2cccc(C(F)(F)F)c2)[C@@H]1/C=C/c1ccccc1"
Result block: 3.26

Query block: Indicate its recorded TGI; the molecule in question is "Cc1ccccc1/C=C1\CN(C(=O)OC(C)(C)C)C/C(=C\c2ccccc2C)C1=O"
Result block: 5.45

Query block: Indicate its recorded TGI; the molecule in question is "CC[C@@]1(O)C(=O)OCc2c1cc1n(c2=O)Cc2c-1nc1ccccc1c2/C=N/OC(C)(C)C"
Result block: 3.92

Query block: Indicate its recorded TGI; the molecule in question is "Cn1c(=S)sc2nc3ccccc3n2c1=S"
Result block: 35.5

Query block: Indicate its recorded TGI; the molecule in question is "COC(=O)[C@@H]1C[C@]2(CC=C(C)C)c3ccccc3N(S(=O)(=O)c3ccccc3)[C@@H]2N1C(=O)OC"
Result block: 45
